All values here come from patent US20250145711A1.

# % Retained 55° C. annotations
Biological target: T1, TRCW5 antigen (CD3δε-Fc-Avi) (biotinylated (site not stated))
T1 construct: also called recombinant CD3
T1 sequence (chain, as listed by the source mutant limits assumed): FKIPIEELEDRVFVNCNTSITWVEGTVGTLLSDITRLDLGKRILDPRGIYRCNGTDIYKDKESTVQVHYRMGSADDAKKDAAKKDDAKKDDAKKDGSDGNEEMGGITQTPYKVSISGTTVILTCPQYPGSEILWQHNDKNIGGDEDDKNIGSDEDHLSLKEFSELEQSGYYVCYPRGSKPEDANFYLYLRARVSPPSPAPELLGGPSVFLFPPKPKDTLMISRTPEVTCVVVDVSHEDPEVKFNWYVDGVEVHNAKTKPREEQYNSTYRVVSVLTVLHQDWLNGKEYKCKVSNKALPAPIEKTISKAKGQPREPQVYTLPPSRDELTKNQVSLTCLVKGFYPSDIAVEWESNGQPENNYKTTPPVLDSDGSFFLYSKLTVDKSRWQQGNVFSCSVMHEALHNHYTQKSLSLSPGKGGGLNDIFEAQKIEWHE
Experiment: ELISA after heat
The reply should be a number in %, with the unit left off.

BINDER | NUMERIC RESULT
CD3B2047 (scFv) scFv: QVQLVQSGAEVKKPGSSVKVSCKASGYTFTRSTMHWVKQAPGQGLEWIGYINPSSAYTNYNQKFQGRVTLTADKSTSTAYMELSSLRSEDTAVYYCASPQVHYDYNGFPYWGQGTLVTVSSGGSEGKSSGSGSESKSTGGSEIVLTQSPATLSASPGERVTLSCSASSSVSYMNWYQQKPGQSPRRLIYDSSKLASGVPARFSGSGSGRDYTLTISSLEPEDFAVYYCQQWSRNPPTFGGGTKVEIK | 106
CD3B2063 (scFv) scFv: QVQLVQSGAEVKKPGSSVKVSCKASGYTFTRSTMHWVKQAPGQGLEWIGYINPSSAYTNYAQKFQGRVTLTADKSTSTAYMELSSLRSEDTAVYYCASPQVHYDYNGFPYWGQGTLVTVSSGGSEGKSSGSGSESKSTGGSEIVLTQSPATLSASPGERVTLSCSASSSVSYMNWYQQKPGTAPRRLIYDSSKLASGVPARFSGSGSGRDYTLTISSLEPEDFAVYYCQQWSRNPPTFGGGTKVEIK | 108
CD3B1127 (scFv, also called Murine HL; murine Cris-7 scFv (HL)) scFv: QVQLQQSGAELARPGASVKMSCKASGYTFTRSTMHWVKQRPGQGLEWIGYINPSSAYTNYNQKFKDKATLTADKSSSTAYMQLSSLTSEDSAVYYCASPQVHYDYNGFPYWGQGTLVTVSAGGSEGKSSGSGSESKSTGGSQVVLTQSPAIMSAFPGEKVTMTCSASSSVSYMNWYQQKSGTSPKRWIYDSSKLASGVPARFSGSGSGTSYSLTISSMETEDAATYYCQQWSRNPPTFGGGTKLQIT | 19
CD3B2058 (scFv) scFv: QVQLVQSGAEVKKPGSSVKVSCKASGYTFTRSTMHWVKQAPGQGLEWIGYINPSSAYTNYAQKFQGRVTLTADKSTSTAYMELSSLRSEDTAVYYCASPQVHYDYNGFPYWGQGTLVTVSSGGSEGKSSGSGSESKSTGGSEIVLTQSPATLSASPGERVTLSCSASSSVSYMNWYQQKPGTSPRRWIYDSSKLASGVPARFSGSGSGRDYTLTISSLEPEDFAVYYCQQWSRNPPTFGGGTKVEIK | 112

**Query** # get_value(readout='% Retained 55° C.', item= CD3B2034 (scFv) scFv: QVQLVQSGAEVKKPGSSVKVSCKASGYTFTRSTMHWVKQAPGQGLEWMGYINPSSAYTNYNQKFQGRVTLTADKSTSTAYMELSSLRSEDTAVYYCASPQVHYDYNGFPYWGQGTLVTVSSGGSEGKSSGSGSESKSTGGSEIVLTQSPATLSASPGERVTLSCSASSSVSYMNWYQQKPGQSPRRWIYDSSKLASGVPARFSGSGSGRDYTLTISSLEPEDFAVYYCQQWSRNPPTFGGGTKVEIK )
**Result** 103

**Query** Report % Retained 55° C. for CD3B2053 (scFv) scFv: QVQLVQSGAEVKKPGSSVKVSCKASGYTFTRSTMHWVKQAPGQGLEWMGYINPSSAYTNYAQKFQGRVTLTADKSTSTAYMELSSLRSEDTAVYYCASPQVHYDYNGFPYWGQGTLVTVSSGGSEGKSSGSGSESKSTGGSEIVLTQSPATLSASPGERVTLSCSASSSVSYMNWYQQKPGQSPRRLIYDSSKLASGVPARFSGSGSGRDYTLTISSLEPEDFAVYYCQQWSRNPPTFGGGTKVEIK please.
**Result** 115

**Query** Given CD3B2064 (scFv) scFv: QVQLVQSGAEVKKPGSSVKVSCKASGYTFTRSTMHWVKQAPGQGLEWIGYINPSSAYTNYAQKFQGRVTLTADKSTSTAYMELSSLRSEDTAVYYCASPQVHYDYNGFPYWGQGTLVTVSSGGSEGKSSGSGSESKSTGGSEIVLTQSPATLSASPGERVTLSCSASSSVSYMNWYQQKPGQSPRRWIYDSSKLASGVPARFSGSGSGRDYTLTISSLEPEDFAVYYCQQWSRNPPTFGGGTKVEIK , state its recorded % Retained 55° C..
**Result** 111

**Query** Please report the recorded % Retained 55° C. for CD3B2042 (scFv) scFv: QVQLVQSGAEVKKPGSSVKVSCKASGYTFTRSTMHWVRQAPGQGLEWIGYINPSSAYTNYNQKFQGRVTLTADKSTSTAYMELSSLRSEDTAVYYCASPQVHYDYNGFPYWGQGTLVTVSSGGSEGKSSGSGSESKSTGGSEIVLTQSPATLSASPGERVTLSCSASSSVSYMNWYQQKPGTSPRRLIYDSSKLASGVPARFSGSGSGRDYTLTISSLEPEDFAVYYCQQWSRNPPTFGGGTKVEIK .
**Result** 96

**Query** Consider the binder CD3B2038 (scFv) scFv: QVQLVQSGAEVKKPGSSVKVSCKASGYTFTRSTMHWVKQAPGQGLEWMGYINPSSAYTNYAQKFQGRVTLTADKSTSTAYMELSSLRSEDTAVYYCASPQVHYDYNGFPYWGQGTLVTVSSGGSEGKSSGSGSESKSTGGSEIVLTQSPATLSASPGERVTLSCSASSSVSYMNWYQQKPGTAPRRLIYDSSKLASGVPARFSGSGSGRDYTLTISSLEPEDFAVYYCQQWSRNPPTFGGGTKVEIK and give its measured % Retained 55° C..
**Result** 105

**Query** Which % Retained 55° C. is listed for CD3B2061 (scFv) scFv: QVQLVQSGAEVKKPGSSVKVSCKASGYTFTRSTMHWVKQAPGQGLEWIGYINPSSAYTNYAQKFQGRVTLTADKSTSTAYMELSSLRSEDTAVYYCASPQVHYDYNGFPYWGQGTLVTVSSGGSEGKSSGSGSESKSTGGSEIVLTQSPATLSASPGERVTLSCSASSSVSYMNWYQQKPGTAPRRWIYDSSKLASGVPARFSGSGSGRDYTLTISSLEPEDFAVYYCQQWSRNPPTFGGGTKVEIK ?
**Result** 116
